System: SN12C
Assay: NCI 60-cell line screen
Type: cell-based, human
Conditions: Homo sapiens
Measurement Type: pIC50
Formally, pIC50 is defined as -log10 of the concentration c, with c in mol/L.

{"Smiles Text": "O=C(CN1CCN(CC(=O)Nc2nc3ccccc3s2)CC1)Nc1ccc([N+](=O)[O-])cc1", "pIC50": 5.46}

Field: next compound
Which pIC50 is listed for O=C(CNc1ccc([N+](=O)[O-])cc1)Nc1nc2ccccc2s1 ?
5.82

###

System: BT-549
Test: NCI 60-cell line screen
Format: cell-based, human
Details: Homo sapiens, BT-549
Recorded measurements of pIC50, one per entry
Formally, pIC50 is defined as -log10 of the concentration c, with c in mol/L.

{"Molecule": "O=C(CNc1ccc([N+](=O)[O-])cc1)Nc1nc2ccccc2s1 [OMS5]", "pIC50": 5.27}

Field: next molecule
Find pIC50 (BT-549) for the entry O=C(CN1CCN(CC(=O)Nc2nc3ccccc3s2)CC1)Nc1ccc([N+](=O)[O-])cc1 [OMS14]
5.11

###

Tested on: HCT-116
Test: NCI 60-cell line screen
Format: cell-based, human
Details: Homo sapiens, HCT-116
Recorded measurements of IC50, one per entry
Write down the numeric answer in nM and omit the unit.

{"Smiles Text": "O=C(CN1CCN(CC(=O)Nc2nc3ccccc3s2)CC1)Nc1ccc([N+](=O)[O-])cc1", "IC50 [nM]": 800}

Field: next compound
Which IC50 is listed for O=C(CNc1ccc([N+](=O)[O-])cc1)Nc1nc2ccccc2s1 ?
400

###

Recorded measurements of inhibition at 10 µM, one per entry
System: Fibro cell line
Experiment: % inhibition on normal cell line
Assay type: cell-based
Settings: read-out: %inhibition at 10 μM
Write down the numeric answer in % and omit the unit.

{"Molecule": "O=C(CNc1ccc(F)cc1)Nc1nc2ccccc2s1 [OMS3]", "Measurement Type": "inhibition at 10 µM", "Endpoint Result": 10.3}
{"Molecule": "O=C(CN1CCN(c2ccc([N+](=O)[O-])cc2)CC1)Nc1nc2ccccc2s1 [OMS11]", "Measurement Type": "inhibition at 10 µM", "Endpoint Result": 21.3}
{"Molecule": "O=C(CN1CCN(c2ccccc2O)CC1)Nc1nc2ccccc2s1 [OMS12]", "Measurement Type": "inhibition at 10 µM", "Endpoint Result": 24.3}
{"Molecule": "O=C(CNc1ccc(S(=O)(=O)Nc2ccccn2)cc1)Nc1nc2ccccc2s1 [OMS8]", "Measurement Type": "inhibition at 10 µM", "Endpoint Result": 8.62}

Field: next molecule
Which inhibition at 10 µM is listed for O=C(CN1CCN(CC(=O)Nc2nc3ccccc3s2)CC1)Nc1ccc([N+](=O)[O-])cc1 [OMS14] ?
49.4

###

System: Escherichia coli
Test: Disc diffusion antimicrobial test
Format: cell-based
Settings: Escherichia coli, 24 h, read-out: zone of inhibition (diameter of inhibition)
Measurement Type: zone of inhibition at 100 µg/mL (mm)
Write down the numeric answer in mm and omit the unit.

{"Smiles Text": "O=C(CNc1ccc([N+](=O)[O-])cc1)Nc1nc2ccccc2s1", "Measurement Type": "zone of inhibition at 100 µg/mL", "Endpoint Result": 0}

Find zone of inhibition at 100 µg/mL (Escherichia coli) for the entry O=C(CNc1ccc(S(=O)(=O)Nc2ccccn2)cc1)Nc1nc2ccccc2s1
0

Find zone of inhibition at 100 µg/mL (Escherichia coli) for the entry O=C(CN1CCN(CC(=O)Nc2nc3ccccc3s2)CC1)Nc1nc2ccccc2s1
0
